# test.target: Myeloid Cell Leukemia 1(Mcl-1) (Homo sapiens)
# Sequence (Q07820 whole entry): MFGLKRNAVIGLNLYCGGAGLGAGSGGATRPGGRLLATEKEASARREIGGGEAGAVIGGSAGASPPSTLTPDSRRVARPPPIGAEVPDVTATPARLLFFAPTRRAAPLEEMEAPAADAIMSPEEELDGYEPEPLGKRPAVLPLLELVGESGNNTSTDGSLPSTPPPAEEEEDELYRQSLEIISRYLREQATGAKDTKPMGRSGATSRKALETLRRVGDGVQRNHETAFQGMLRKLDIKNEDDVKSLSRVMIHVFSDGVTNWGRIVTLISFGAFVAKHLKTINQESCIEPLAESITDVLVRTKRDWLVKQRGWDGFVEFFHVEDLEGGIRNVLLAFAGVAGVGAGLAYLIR
# assay.overview: Terbium labeled Mcl-1 HTRF binding assay with Cy5-labeled BIM BH3 peptide
# test.conditions: displacement of Cy5 Bim BH3 peptide; Ki=IC50/(1+[L]/Kd), [L]=8 nM, Kd=10 nM; 60 minutes at room temperature; read-out: Tb-MCL1 Ki
compounds and their reported pKi
Reminder that pKi means the negative base-10 logarithm of the concentration expressed in mol/L.

In the examples that follow, each entry is paired with its recorded pKi.
- compound: "COCCCN(CCOC)C(=O)[C@H]1/C(F)=C/C[C@H](C)[C@@H](C)S(=O)(=O)NC(=O)c2ccc3c(c2)N(C[C@@H]2CCCN21)C[C@@]1(CCCc2cc(Cl)ccc21)CO3"
  pKi: 10.55
- compound: "C[C@@H]1[C@@H](C)C/C=C(\\F)[C@H](C(=O)N(C)CC2CCCCO2)N2CCC[C@H]2CN2C[C@@]3(CCCc4cc(Cl)ccc43)COc3ccc(cc32)C(=O)NS1(=O)=O (single isomer, unassigned) [Compound 72]"
  pKi: 10.21
- compound: "COCCN1CCN(C(=O)[C@H]2/C(F)=C/C[C@H](C)[C@@H](C)S(=O)(=O)NC(=O)c3ccc4c(c3)N(C[C@@H]3CCCN32)C[C@@]2(CCCc3cc(Cl)ccc32)CO4)CC1"
  pKi: 10.29

Summary for this compound, `COCCN(CCOC)C(=O)[C@H]1/C(F)=C/C[C@H](C)[C@@H](C)S(=O)(=O)NC(=O)c2ccc3c(c2)N(C[C@@H]2CCCN21)C[C@@]1(CCOc2cc(Cl)ccc21)CO3` : pKi is 10.57

Value of measured pKi for the entry `C[C@@H]1[C@@H](C)C/C=C(\F)[C@H](C(=O)N2CC(C)(N3CCOCC3)C2)N2CCC[C@H]2CN2C[C@@]3(CCCc4cc(Cl)ccc43)COc3ccc(cc32)C(=O)NS1(=O)=O` : 10.40

The compound listed as C[C@@H]1[C@@H](C)C/C=C(\F)[C@@H](C(=O)N(C)CCN2CCOCC2)N2CCC[C@H]2CN2C[C@@]3(CCCc4cc(Cl)ccc43)COc3ccc(cc32)C(=O)NS1(=O)=O (single isomer, unassigned) has a reported pKi of 9.71

Please fill in: pKi reported for `COCCCN(CCCOC)C(=O)[C@H]1/C(F)=C/C[C@H](C)[C@@H](C)S(=O)(=O)NC(=O)c2ccc3c(c2)N(C[C@@H]2CCCN21)C[C@@]1(CCCc2cc(Cl)ccc21)CO3` = 10.21

get_value(item= C[C@@H]1[C@@H](C)C/C=C(\F)[C@H](C(=O)N(C)CC2CCCCO2)N2CCC[C@H]2CN2C[C@@]3(CCCc4cc(Cl)ccc43)COc3ccc(cc32)C(=O)NS1(=O)=O (single isomer, unassigned) [Compound 71] , readout=pKi) returns 10.18

The compound `C[C@@H]1[C@@H](C)C/C=C(\F)[C@H](C(=O)N(C)CC2CCOCC2)N2CCC[C@H]2CN2C[C@@]3(CCCc4cc(Cl)ccc43)COc3ccc(cc32)C(=O)NS1(=O)=O` showed pKi equal to 10.33

So for CC1CN(CCN(C)C(=O)[C@H]2/C(F)=C/C[C@H](C)[C@@H](C)S(=O)(=O)NC(=O)c3ccc4c(c3)N(C[C@@H]3CCCN32)C[C@@]2(CCCc3cc(Cl)ccc32)CO4)CC(C)O1 (mixture of isomers) [Compound 45] , the logged pKi turned out to be 9.95

The compound identified as `C[C@@H]1[C@@H](C)C/C=C(\F)[C@H](C(=O)N2C[C@@H]3OCCO[C@@H]3C2)N2CCC[C@H]2CN2C[C@@]3(CCCc4cc(Cl)ccc43)COc3ccc(cc32)C(=O)NS1(=O)=O` registered its pKi at 10.16

Measured pKi, `C[C@@H]1[C@@H](C)C/C=C(\F)[C@H](C(=O)N2CCC3(CCCCC3)C2)N2CCC[C@H]2CN2C[C@@]3(CCCc4cc(Cl)ccc43)COc3ccc(cc32)C(=O)NS1(=O)=O` : 9.22

For reference, reported pKi for C[C@@H]1[C@@H](C)C/C=C(\F)C(CO)(C(=O)N(C)CCN2CCOCC2)N2CCC[C@H]2CN2C[C@@]3(CCCc4cc(Cl)ccc43)COc3ccc(cc32)C(=O)NS1(=O)=O (stereo partly drawn) stands at 10.49

Record summary for `C[C@@H]1[C@@H](C)C/C=C(\F)[C@H](C(=O)N2CCN(C)C3(CC3)C2)N2CCC[C@H]2CN2C[C@@]3(CCCc4cc(Cl)ccc43)COc3ccc(cc32)C(=O)NS1(=O)=O` : reported pKi = 10.21

The reported value for `C[C@@H]1[C@@H](C)C/C=C(\F)[C@H](C(=O)N(C)CCOc2cncc(F)c2)N2CCC[C@H]2CN2C[C@@]3(CCCc4cc(Cl)ccc43)COc3ccc(cc32)C(=O)NS1(=O)=O` in terms of pKi is 9.81

Looking up `C[C@@H]1[C@@H](C)C/C=C(\F)[C@H](C(=O)N(C)C)N2CCC[C@H]2CN2C[C@@]3(CCCc4cc(Cl)ccc43)COc3ccc(cc32)C(=O)NS1(=O)=O` , I see its pKi listed as 9.89

Measured pKi of `COCCN(CCOC)C(=O)[C@H]1/C(F)=C/C[C@H](C)[C@@H](C)S(=O)(=O)NC(=O)c2ccc3c(c2)N(C[C@@H]2CCCN21)C[C@@]1(CCCc2cc(Cl)ccc21)CO3` : 10.09

Lab note: measured pKi of C[C@@H]1[C@@H](C)C/C=C(\F)[C@H](C(=O)N(C)C2CCCOC2)N2CCC[C@H]2CN2C[C@@]3(CCCc4cc(Cl)ccc43)COc3ccc(cc32)C(=O)NS1(=O)=O (stereo partly drawn) [Compound 58] was 10.39
